// values below are reported pIC50
assay-details: Inhibitory concentration required against shedding of TNF-alpha from stimulated PBMCs
Format: functional
condition-summary: Homo sapiens
pIC50: −log10 of the molar value.

1) O=C(c1ccccc1)c1ccc(S(=O)(=O)CC(CCCc2ccccc2)C(=O)NO)cc1 (configuration not stated): < 4.00

// moving on: another record for pIC50
Query: Which measured pIC50 value corresponds to Cl.O=C(c1ccncc1)c1ccc(S(=O)(=O)CC(CCCc2ccccc2)C(=O)NO)cc1 (configuration not stated) ?
Reply: < 4.00

====

target-system: Neutrophil collagenase (Homo sapiens)
Sequence (P22894 whole entry): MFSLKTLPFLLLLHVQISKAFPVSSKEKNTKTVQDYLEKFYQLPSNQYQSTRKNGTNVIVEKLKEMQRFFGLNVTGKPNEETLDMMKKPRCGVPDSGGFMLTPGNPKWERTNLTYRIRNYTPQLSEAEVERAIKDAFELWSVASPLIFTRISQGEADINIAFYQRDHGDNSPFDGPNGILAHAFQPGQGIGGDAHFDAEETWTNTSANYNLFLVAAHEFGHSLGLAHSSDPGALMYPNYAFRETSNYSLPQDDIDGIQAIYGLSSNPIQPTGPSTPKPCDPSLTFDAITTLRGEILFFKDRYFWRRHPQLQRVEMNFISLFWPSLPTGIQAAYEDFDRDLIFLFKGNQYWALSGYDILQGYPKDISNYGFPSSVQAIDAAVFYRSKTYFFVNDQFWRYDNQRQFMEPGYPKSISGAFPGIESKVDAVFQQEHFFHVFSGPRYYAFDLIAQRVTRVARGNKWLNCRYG
assay-details: Inhibition of Matrix metalloprotease-8
pIC50: −log10 of the molar value.
measured-property: pIC50

1) O=C(c1ccccc1)c1ccc(S(=O)(=O)CC(CCCc2ccccc2)C(=O)O)cc1 (stereo unspecified): 6.52

1: O=C(NO)C(CCCc1ccccc1)CS(=O)(=O)c1ccc(Cc2ccccc2)cc1 (stereo unspecified)
2: O=C(c1ccccc1)c1ccc(S(=O)(=O)CC(CCCc2ccccc2)C(=O)NO)cc1 (stereo unspecified)
3: Cl.O=C(c1ccncc1)c1ccc(S(=O)(=O)CC(CCCc2ccccc2)C(=O)NO)cc1 (stereo unspecified)
4: O=C(NO)C(CCCc1ccccc1)CS(=O)(=O)c1ccc(C(O)c2ccccc2)cc1 (stereo unspecified)
5: O=C(c1ccc(S(=O)(=O)CC(CCCc2ccccc2)C(=O)NO)cc1)c1cc[n+]([O-])cc1 (stereo unspecified)
Query: Order the records so the highest pIC50 appears first and the lowest last. To answer, write out the labels according to the requested order.
Reply: 3, 2, 5, 1, 4

====

assay-details: Inhibitory concentration required against shedding of IL6-R from stimulated PBMCs
Assay type: functional
measured-property: pIC50
Lab note — pIC50 values are minus log10 of concentrations in M.

Query: Quick one: pIC50 for CNC(=O)[C@@H](NC(=O)C(CC(C)C)C(O)C(=O)NO)C(C)(C)C (single isomer, unassigned) ?
Reply: 5.00

====

Dear all, this message contains IC50 results, target or system Matrix metalloproteinase-9 (Homo sapiens).
measured-property: IC50 (nM)

I: O=C(c1ccc(S(=O)(=O)CC(CCCc2ccccc2)C(=O)NO)cc1)c1cc[n+]([O-])cc1 (configuration not stated)
II: O=C(c1ccccc1)c1ccc(S(=O)(=O)CC(CCCc2ccccc2)C(=O)O)cc1 (configuration not stated)
Query: Which has the higher IC50, I or II ? Please reply using the label of the selected record.
Reply: II

====

target-system: Stromelysin-1 (Homo sapiens)
Sequence (P08254 whole entry): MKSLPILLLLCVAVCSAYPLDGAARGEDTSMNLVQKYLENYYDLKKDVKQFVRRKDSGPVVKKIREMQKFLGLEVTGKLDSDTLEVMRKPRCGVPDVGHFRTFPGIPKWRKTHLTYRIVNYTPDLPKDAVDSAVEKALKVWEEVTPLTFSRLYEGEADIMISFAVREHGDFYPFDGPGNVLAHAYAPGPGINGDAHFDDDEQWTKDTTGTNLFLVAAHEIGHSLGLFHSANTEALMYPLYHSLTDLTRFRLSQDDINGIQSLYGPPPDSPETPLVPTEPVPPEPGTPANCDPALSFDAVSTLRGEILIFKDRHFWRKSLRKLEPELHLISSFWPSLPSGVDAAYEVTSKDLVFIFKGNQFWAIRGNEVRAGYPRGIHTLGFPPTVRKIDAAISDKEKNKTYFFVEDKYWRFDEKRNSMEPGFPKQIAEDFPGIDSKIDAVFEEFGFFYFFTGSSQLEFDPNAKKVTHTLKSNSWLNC
measured-property: IC50 (nM)

A: O=C(c1ccc(S(=O)(=O)CC(CCCc2ccccc2)C(=O)NO)cc1)c1cc[n+]([O-])cc1 (stereo not drawn)
B: O=C(NO)C(CCCc1ccccc1)CS(=O)(=O)c1ccc(C(O)c2ccccc2)cc1 (stereo not drawn)
Query: Of A and B , whose reported IC50 is numerically smaller? Selection: enter the item's label.
Reply: A

====

Please consider the recorded IC50 for 72 kDa type IV collagenase (Homo sapiens) in what follows.
measured-property: IC50 (nM)

A: O=C(NO)C(CCCc1ccccc1)CS(=O)(=O)c1ccc(C(O)c2ccccc2)cc1 (configuration not stated)
B: O=C(NO)C(CCCc1ccccc1)CS(=O)(=O)c1ccc(Cc2ccccc2)cc1 (configuration not stated)
Query: Could you tell me which of these two has the smaller IC50 figure? First: A Second: B Answer with the label corresponding to your selection.
Reply: B
